Assay: NCI Yeast Anticancer Drug Screen. Data for the wt1 strain (AID 149);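 also: 0% = growth of vehicle-treated wt1 cultures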
Applied conditions: S. cerevisiae wt1 strain (SPY 50644) growth inhibition; at 1.2 µM; active compounds read high
The panel holds about 79,000 compounds, 15% with a hit somewhere; the sample as a whole holds those more often.
Measurement type: growth inhibition (%)
Numbers only; they are read as %.

Observe how each entry below is paired with its result.
>  <Compound>
COc1cc2cc3c4cc(OC)c(OC)cc4cc[n+]3c(C)c2cc1OC

>  <Numeric value>
-33

$$$$
>  <Compound>
CN(C)C=NC1CCC(C(C)(C)C)CC1 (stereo unspecified)

>  <Numeric value>
-4

$$$$
>  <Compound>
c1ccc(Cc2cc(-c3ccccc3)n[nH]2)cc1

>  <Numeric value>
-6

$$$$
>  <Compound>
Cc1cc(N(CCOS(C)(=O)=O)CCOS(C)(=O)=O)ccc1C=Nc1ccc(-c2nc(Cc3ccccc3)sc2C)cc1

>  <Numeric value>
-29

$$$$

**Q:** May I ask what growth inhibition has been recorded for O=C1C(=O)c2ccccc2C(O)=C1C(C1=C(O)c2ccccc2C(=O)C1=O)c1ccc(Cl)cc1 ?
**A:** 4

**Q:** May I ask what growth inhibition has been recorded for CC(C)(C)N=C(NO)c1ccccc1 ?
**A:** 0

**Q:** May I ask what growth inhibition has been recorded for CCOC(=O)C#Cc1ccc([N+](=O)[O-])cc1 ?
**A:** 2

**Q:** May I ask what growth inhibition has been recorded for O=c1ccc2ccccc2c2ccccc12 ?
**A:** -17

**Q:** May I ask what growth inhibition has been recorded for COc1cc(/C=C2\CCC/C(=C\c3ccc(O)c(OC)c3)C2=O)ccc1O ?
**A:** 1

**Q:** May I ask what growth inhibition has been recorded for CCCCN(CCCC)CCC(O)c1cc2c(Cl)cc(Cl)cc2c2cc(C(F)(F)F)ccc12 (stereo unspecified) ?
**A:** -2

**Q:** May I ask what growth inhibition has been recorded for Cc1cccc2c1nc1ccc(Cl)cc1[n+]2C ?
**A:** -1

###

Assay: NCI Yeast Anticancer Drug Screen. Data for the rad18 strain (AID 177)
Applied conditions: S. cerevisiae rad18 mutant growth inhibition; at 100.0 µM
This is part of a sample that, as a whole, favours compounds with a hit. Of some 79,000 tested, about 15% had one in any assay. The source made the active and inactive calls. No stated cut-off is given here; in the data, active means growth inhibition above about 70%; inactive means the rest.
Parameter call: string, one of 1.0 = active, 0.0 = inactive

>  <Compound>
CCCCCCCCCCCC1N=C(N)NC(CCCO)=C1C(=O)OC (stereo not given)

>  <Answer label>
1.0

$$$$
>  <Compound>
COc1ccc(C(=O)c2ccccc2C(=O)c2ccccc2OC)cc1

>  <Answer label>
0.0

$$$$
>  <Compound>
CC12C(=O)OC(=O)C(c3ccccc31)c1ccccc12

>  <Answer label>
0.0

$$$$

**Q:** Please indicate how the test categorized CN(C)CCOC1(Cc2ccc(Cl)cc2Cl)CCC(C(C)(C)C)CC1 (stereo not given) .
**A:** 1.0

**Q:** Please indicate how the test categorized COc1cc([C@@H]2c3cc4c(cc3[C@@H](Nc3ccc(NC(=O)c5cc([N+](=O)[O-])cn5C)cc3)[C@H]3COC(=O)[C@H]23)OCO4)cc(OC)c1O .
**A:** 0.0

###

Attribute: growth inhibition
Assay: NCI Yeast Anticancer Drug Screen. Data for the rad50EPP+ strain (AID 151);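 also: 0% = growth of vehicle-treated control cultures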
Applied conditions: S. cerevisiae rad50 mutant strain, at 1.2 µM, active compounds read high
Compounds without any hit were thinned out: in the full panel of roughly 79,000, 15% have a hit.
Numbers only; they are read as %.

>  <Compound>
Nc1ncc(-c2ccc(Br)cc2)s1

>  <growth inhibition, %>
19

$$$$
>  <Compound>
CCOc1ccccc1N=Cc1c2ccccc2cc2ccccc12

>  <growth inhibition, %>
-4

$$$$
>  <Compound>
CCOc1c(N=Nc2ccccc2OC)c(C)nn1C(=S)S

>  <growth inhibition, %>
2

$$$$
>  <Compound>
CCN(CC)Cc1cc(Nc2c3ccccc3nc3c2[nH]c2ccccc23)cc(CN(CC)CC)c1O

>  <growth inhibition, %>
3

$$$$
>  <Compound>
CC(C)(C)CC(C)(C)c1cc(O)c(O)c(CN2CCCCC2)c1

>  <growth inhibition, %>
-5

$$$$
>  <Compound>
O=C(O)c1ccccc1/C=N/N=C1c2ccccc2-c2ccccc21

>  <growth inhibition, %>
-4

$$$$

// switching to the query compound
**Q:** May I ask what growth inhibition has been recorded for CCOC(=O)[C@H]1Nc2ccc(OC)cc2C2c3ccccc3CC21 (some centres not stated) ?
**A:** -25

###

Assay: NCI Yeast Anticancer Drug Screen. Data for the bub3 strain (AID 167)
Applied conditions: S. cerevisiae bub3 mutant strain, at 50.0 µM (retest, dose inferred, filed as 5.0)
About 79,000 compounds went through this panel and 15% of them were active in at least one assay; those are over-represented in the sample as a whole. Calls of active or inactive are those of the source. No stated cut-off is given here; in the data, active means growth inhibition above about 70%; inactive means the rest.
Parameter call: string, one of active, inactive

Below, 8 molecules whose answers are already recorded.
>  <Molecule>
CN(C)[C@@H]1C(=O)C(C(N)=O)=C(O)[C@@]2(O)C(=O)C3=C(O)c4c(O)cccc4C[C@H]3C[C@@H]12

>  <Answer label>
active

$$$$
>  <Molecule>
c1ccc2c(c1)sc1c3cnccc3ccc21

>  <Answer label>
inactive

$$$$
>  <Molecule>
CNC(=O)OCc1c(COC(=O)NC)c(-c2ccc(Cl)cc2)n2c1CCC2

>  <Answer label>
inactive

$$$$
>  <Molecule>
CC(C)CCCC(C)C1CCC2C3CCC4=CC(=O)/C(=C\O)CC4(C)C3CCC12C (stereo unspecified)

>  <Answer label>
inactive

$$$$
>  <Molecule>
C=C1CC(CCCl)(c2ccccc2)OC1=O (stereo unspecified)

>  <Answer label>
active

$$$$
>  <Molecule>
COc1cc(O)c(O)c(C(C)(C)C)c1

>  <Answer label>
active

$$$$
>  <Molecule>
CCOC(=O)COc1c(OC)cc(C2C3=C(COC3=O)Oc3cc4c(cc32)OCO4)cc1OC (stereo unspecified)

>  <Answer label>
inactive

$$$$
>  <Molecule>
COc1ccc(N=CN(C)C)c(C)c1

>  <Answer label>
active

$$$$

**Q:** Please indicate how the test categorized CCOC(=O)C(Br)C(Br)c1ccccc1Cl (stereo unspecified) .
**A:** active

**Q:** Please indicate how the test categorized COc1cc(/C=C2\CCC/C(=C\c3ccc(O)c(OC)c3)C2=O)ccc1O .
**A:** inactive

**Q:** Please indicate how the test categorized CCN(CC)CCNc1ccc2ncn3c4cc(OC)c(OC)c(=O)c4c(O)c1c23 .
**A:** inactive

###

Attribute: growth inhibition
Assay: NCI Yeast Anticancer Drug Screen. Data for the sgs1 strain (AID 173);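 also: 0% = growth of vehicle-only control cultures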
Applied conditions: S. cerevisiae sgs1 mutant, at 3.7 µM, active compounds read high
Procedure: Growth inhibition of yeast strains with defined genetic alterations is measured as a screen for potential anti-cancer activity. Selected strains with alterations in DNA damage repair or cell cycle control were exposed to compounds and growth inhibition was measured relative to vehicle treated controls. The strain used in this assay is sgs1
The panel holds about 79,000 compounds, 15% with a hit somewhere; the sample as a whole holds those more often.
Numbers only; they are read as %.

Observe how each entry below is paired with its result.
>  <Molecule>
Cc1cc(C)c(NC(=S)NC(=O)c2ccccc2)cc1C

>  <Numeric value>
-54

$$$$
>  <Molecule>
CCOC1=C/C(=N\Nc2ccc([N+](=O)[O-])cc2)CCC1

>  <Numeric value>
3

$$$$
>  <Molecule>
CC(C)CN(CC(C)C)C(=O)c1ccc(Cl)c(Cl)c1

>  <Numeric value>
3

$$$$
>  <Molecule>
CCOC1(c2cccc([N+](=O)[O-])c2)c2ccccc2Oc2ccccc21

>  <Numeric value>
1

$$$$

**Q:** May I ask what growth inhibition has been recorded for O=C(NNc1ccccc1)C(O)C(O)C(O)C(O)C(O)CO (stereo not given) ?
**A:** 10

###

Assay: NCI Yeast Anticancer Drug Screen. Data for the wt2 strain (AID 169);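 also: 0% = growth of vehicle-treated yeast cultures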
Applied conditions: S. cerevisiae wt2 strain growth inhibition; at 3.7 µM; active compounds read high
Method: Growth inhibition of yeast strains with defined genetic alterations is measured as a screen for potential anti-cancer activity. Selected strains with alterations in DNA damage repair or cell cycle control were exposed to compounds and growth inhibition was measured relative to vehicle treated controls. The strain used in this assay is wt2
The panel holds about 79,000 compounds, 15% with a hit somewhere; the sample as a whole holds those more often. The source made the active and inactive calls. Rule as the data show it: active = growth inhibition above about 70%; inactive = the rest.
Measurement type: growth inhibition

Observe how each entry below is paired with its result.
>  <Compound>
O=C1C(Br)=C(c2ccccc2)O/C1=C/C(=O)c1ccc(Br)cc1

>  <growth inhibition>
3% (inactive)

$$$$
>  <Compound>
CC(=O)OC1CCC2(C)C(=CC(C3C=C4CC(OC(C)=O)CCC4(C)C4=C3C3CC5OC6(CCC(C)CO6)C(C)C5C3(C)CC4)C3=C2CCC2(C)C3CC3OC4(CCC(C)CO4)C(C)C32)C1 (stereo not drawn)

>  <growth inhibition>
-3% (inactive)

$$$$
>  <Compound>
CC(O)=NC(Cc1ccc2ccccc2c1)C(O)=NC(Cc1ccc(Cl)cc1)C(O)=NC(Cc1c[nH]c2ccccc12)C(O)=NC(CO)C(O)=NC(Cc1ccc(O)cc1)C(O)=NC(CCCN=C(N)N)C(O)=NC(CC(C)C)C(O)=NC(CCCN=C(N)N)C(=O)N1CCCC1C(O)=NC(C)C(=N)O (stereo not drawn)

>  <growth inhibition>
-10% (inactive)

$$$$
>  <Compound>
CC1=NOC(=O)/C1=C/c1ccc2c(c1)OCO2

>  <growth inhibition>
0% (inactive)

$$$$
>  <Compound>
O=C(NCCCl)Sc1ccc(Cl)cc1

>  <growth inhibition>
0% (inactive)

$$$$

**Q:** May I ask what growth inhibition has been recorded for CC1=C(C(=O)NCc2ccccc2)C(c2ccccc2)C(C(=O)NCc2ccccc2)=C(C)N1 ?
**A:** 7% (inactive)

**Q:** May I ask what growth inhibition has been recorded for CCCCOCn1c(=O)[nH]c(=O)c2cc(Br)ccc21 ?
**A:** -20% (inactive)

**Q:** May I ask what growth inhibition has been recorded for COc1oc(C(=O)NC2CCCCC2)c(-c2ccc(Cl)cc2)c1S(=O)(=O)c1ccccc1 ?
**A:** 22% (inactive)

Data provenance is PubChem BioAssay (NCI).
